The measurements presented in this section are drawn from patent US12084443B2.

# assayed-system: PD-1/PD-L1 protein/protein interaction (Homo sapiens)
# Construct: Recombinant human PD-L1 protein (19-238) with a His-tag at the C-terminus; purchased AcroBiosystems PD1-H5229 (PD-L1); PD1-H5257 (PD-1)
# Sequence (Q9NZQ7 19-238): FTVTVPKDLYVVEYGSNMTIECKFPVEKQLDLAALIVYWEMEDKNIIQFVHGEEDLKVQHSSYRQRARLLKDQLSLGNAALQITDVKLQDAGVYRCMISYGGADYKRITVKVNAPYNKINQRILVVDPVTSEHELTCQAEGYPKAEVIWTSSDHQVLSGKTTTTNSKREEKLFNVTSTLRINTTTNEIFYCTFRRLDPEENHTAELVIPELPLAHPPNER
# assay-remarks: PD-1/PD-L1 Homogeneous Time-Resolved Fluorescence (HTRF) binding assay
# condition-summary: recombinant human PD-1 (25-167) Fc tag and PD-L1 (19-238) His-tag, 25° C., PBS pH 7.4
readout-type: IC50

Prompt line: Indicate the recorded IC50 value for this molecule: Cc1c(Nc2nccc3cc(CN4CC[C@@H](O)C4)cnc23)cccc1-c1cccc(-c2nc3cc(CN4CC[C@@H](C(=O)O)C4)cc(C#N)c3o2)c1C
Response line: ≤ 10 nM
